IC50 listing for selected molecules.
molecular target: Recombinant human Bcl-2 protein (Homo sapiens (Human)); test: Bcl-2 TR-FRET Assay; type: binding; conditions: wild type Bcl-2; unit inferred; read-out: Bcl-2 WT
Sequence (P10415 whole entry): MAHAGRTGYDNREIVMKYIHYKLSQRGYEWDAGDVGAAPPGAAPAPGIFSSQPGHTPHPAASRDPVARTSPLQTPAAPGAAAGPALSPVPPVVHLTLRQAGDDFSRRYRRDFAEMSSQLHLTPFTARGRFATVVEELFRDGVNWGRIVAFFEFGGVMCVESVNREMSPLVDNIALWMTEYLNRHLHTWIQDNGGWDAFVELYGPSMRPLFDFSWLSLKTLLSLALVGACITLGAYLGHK
assay readout: IC50 (nM)

- molecule: "COc1ccc(CN2CCN(C3CC4(CCN(c5ccc(C(=O)NS(=O)(=O)c6ccc(NC[C@H]7CC[C@](C)(O)CC7)c([N+](=O)[O-])c6)c(Oc6cnc7[nH]ccc7c6)c5)CC4)C3)C(c3ccccc3C(C)C)C2)c2c1OCCO2 (stereo partly shown)"
  numeric value: 0.052
- molecule: "COc1cc(CN2CCN(C3CC4(CCN(c5ccc(C(=O)NS(=O)(=O)c6ccc(NC[C@H]7CC[C@](C)(O)CC7)c([N+](=O)[O-])c6)c(Oc6cnc7[nH]ccc7c6)c5)CC4)C3)[C@H](c3ccccc3C(C)C)C2)ccc1C(F)F"
  numeric value: 0.52
- molecule: "COC1C2CC3CCC(CN4CCN(C5CC6(C5)CN(c5ccc(C(=O)NS(=O)(=O)c7ccc(NC[C@H]8CC[C@](C)(O)CC8)c([N+](=O)[O-])c7)c(Oc7cnc8[nH]cc(F)c8c7)c5)C6)[C@H](c5ccccc5C(C)C)C4)(C2)CC31 (stereo partly shown)"
  numeric value: 0.31
- molecule: "CC(C)c1ccccc1C1CN(Cc2cnn(C3CC3)c2)CCN1C1CC2(CCN(c3ccc(C(=O)NS(=O)(=O)c4ccc(NC[C@H]5CC[C@](C)(O)CC5)c([N+](=O)[O-])c4)c(Oc4cnc5[nH]ccc5c4)c3)CC2)C1 (stereo partly shown)"
  numeric value: 0.014
- molecule: "COc1ccc(CN2CCN(C3CC4(CCN(c5ccc(C(=O)NS(=O)(=O)c6ccc(NCC7(F)CCOCC7)c([N+](=O)[O-])c6)c(Oc6cnc7[nH]ccc7c6)c5)CC4)C3)[C@H](c3ccccc3C(C)C)C2)cc1 (single isomer, unassigned)"
  numeric value: 0.096
- molecule: "COc1cc(CN2CCN(C3CC4(CCN(c5ccc(C(=O)NS(=O)(=O)c6ccc(NC[C@H]7CC[C@](C)(O)CC7)c([N+](=O)[O-])c6)c(Oc6cnc7[nH]cc(F)c7c6)c5)CC4)C3)[C@H](c3ccccc3C(C)C)C2)cc2c1OCCC2"
  numeric value: 0.13
- molecule: "COc1ccc(CN2CCN(C3CC4(CCN(c5ccc(C(=O)NS(=O)(=O)c6ccc(NC[C@@H]7CN(C8COC8)CCO7)c([N+](=O)[O-])c6)c(Oc6cnc7[nH]ccc7c6)c5)CC4)C3)[C@@H](c3ccccc3C(C)C)C2)cc1 (single isomer, unassigned)"
  numeric value: 0.028
- molecule: "CC(C)c1ccccc1[C@@H]1CN(Cc2cccc3c2OCCO3)CCN1C1CC2(CCN(c3ccc(C(=O)NS(=O)(=O)c4ccc(NC[C@H]5CC[C@](C)(O)CC5)c([N+](=O)[O-])c4)c(Oc4cnc5[nH]ccc5c4)c3)CC2)C1 [Example 79a]"
  numeric value: 0.11
- molecule: "CC(C)c1ccccc1C1CN(C2COC2)CCN1C1CC2(CCN(c3ccc(C(=O)NS(=O)(=O)c4ccc(NC[C@H]5CC[C@](C)(O)CC5)c([N+](=O)[O-])c4)c(Oc4cnc5[nH]ccc5c4)c3)CC2)C1 (single isomer, unassigned) [Example 6a]"
  numeric value: 0.0078
- molecule: "[2H]C([2H])([2H])Oc1ccc(CN2CCN(C3CC4(C3)CN(c3ccc(C(=O)NS(=O)(=O)c5ccc(NC[C@H]6CC[C@](C)(O)CC6)c([N+](=O)[O-])c5)c(Oc5cnc6[nH]cc(F)c6c5)c3)C4)[C@H](c3ccccc3C(C)C)C2)cc1OC([2H])([2H])[2H]"
  numeric value: 0.076
